System: anti-M2 human monoclonal antibody Z3G1
Format: binding
Below: a set of entries, each annotated with reported Signal (peptides that bind to Z3G1).
Could you keep your reply to the number by itself?

substance	Signal (peptides that bind to Z3G1)
425 (SLLTEVETPIRNEWGCRCNDSKD; epitope peptide) [compound 425]	2361
706 (SLLTEVETPIRNEWGCRCADSSD; epitope peptide) [compound 706]	2329
1278 (MSLYTEVETPIRNEWGCRCN; epitope peptide) [compound 1278]	1313
1279 (MSLLAEVETPIRNEWGCRCN; epitope peptide) [compound 1279]	2807
1299 (MSLLTEVATPIRNEWGCRCN; epitope peptide) [compound 1299]	2633

Req: Given the entry 444 (SLLTEVETPIRNEWGCRC; epitope peptide) [compound 444] , report its measured Signal (peptides that bind to Z3G1).
Resp: 2478

Req: Given the entry 1312 (MSLLTEVEWPIRNEWGCRCN; epitope peptide) [compound 1312] , report its measured Signal (peptides that bind to Z3G1).
Resp: 2541

Req: Given the entry 318 (SLLTEVETPIRNEWGCRCKDSSD; epitope peptide) [compound 318] , report its measured Signal (peptides that bind to Z3G1).
Resp: 2549

Req: Given the entry 1263 (MRLLTEVETPIRNEWGCRCN; epitope peptide) [compound 1263] , report its measured Signal (peptides that bind to Z3G1).
Resp: 2519

====

Test system: HuM2e antibody 23K12
Format: binding, human
// boundary case: Signal (peptides that bind to 23K21 and 8I10) equal to 900 maps to false (0); strictly smaller maps to true (1)

substance	labelValue
685 (SLLTEVETPIRNVWGCRCNDSSD; epitope peptide) [compound 685]	true (1)

Req: Please indicate whether the reported Signal (peptides that bind to 23K21 and 8I10) of 460 (MSLLTECGMSLLCEV; epitope peptide) [compound 460] is strictly below 900.
Resp: false (0)

Req: Please indicate whether the reported Signal (peptides that bind to 23K21 and 8I10) of 695 (SLLTEVEVPIRNEWGCRCNDSSD; epitope peptide) [compound 695] is strictly below 900.
Resp: true (1)

Req: Please indicate whether the reported Signal (peptides that bind to 23K21 and 8I10) of 639 (SLLTEVETPIRNEWGCFCNDSSD; epitope peptide) [compound 639] is strictly below 900.
Resp: true (1)

Req: Please indicate whether the reported Signal (peptides that bind to 23K21 and 8I10) of 373 (CSLLTECGMSLLTEV; epitope peptide) [compound 373] is strictly below 900.
Resp: false (0)

Req: Please indicate whether the reported Signal (peptides that bind to 23K21 and 8I10) of 500 (SCLTEVGSLLTEV; epitope peptide) [compound 500] is strictly below 900.
Resp: false (0)

Req: Please indicate whether the reported Signal (peptides that bind to 23K21 and 8I10) of 321 (ALLTEVETPIRNEWGCRCNDSSD; epitope peptide) [compound 321] is strictly below 900.
Resp: false (0)

Req: Please indicate whether the reported Signal (peptides that bind to 23K21 and 8I10) of 580 (SLCTEVGCSLLTEV; epitope peptide) [compound 580] is strictly below 900.
Resp: true (1)

====

Below: a set of entries, each annotated with reported Signal (peptides that bind to 23K21 and 8I10).
System: HuM2e antibody 23K12
Format: binding, human
Could you keep your reply to the number by itself?

substance	valueReported
388 (CSLLTEVGCLLTEV; epitope peptide) [compound 388]	1351

Req: Given the entry 420 (SLLTEVETPIRNEWGCRCNDSCD; epitope peptide) [compound 420] , report its measured Signal (peptides that bind to 23K21 and 8I10).
Resp: 725

Req: Given the entry 394 (SLLTEVETPIRNEWGCRCNMSSD; epitope peptide) [compound 394] , report its measured Signal (peptides that bind to 23K21 and 8I10).
Resp: 1133

Req: Given the entry 469 (MSLLTECGMSLLTEC; epitope peptide) [compound 469] , report its measured Signal (peptides that bind to 23K21 and 8I10).
Resp: 1236

Req: Given the entry 299 (SLLTEVGCLCTCV; epitope peptide) [compound 299] , report its measured Signal (peptides that bind to 23K21 and 8I10).
Resp: 1963

Req: Given the entry 485 (CSLLTECGMCLCTCV; epitope peptide) [compound 485] , report its measured Signal (peptides that bind to 23K21 and 8I10).
Resp: 1168
